Reference source: paper PMC2095803

target: Taq DNA polymerase (Thermus aquaticus, UniProt P19821); experiment: PEP; type: biochemical, Thermus aquaticus YT-1
Sequence (P19821 whole entry): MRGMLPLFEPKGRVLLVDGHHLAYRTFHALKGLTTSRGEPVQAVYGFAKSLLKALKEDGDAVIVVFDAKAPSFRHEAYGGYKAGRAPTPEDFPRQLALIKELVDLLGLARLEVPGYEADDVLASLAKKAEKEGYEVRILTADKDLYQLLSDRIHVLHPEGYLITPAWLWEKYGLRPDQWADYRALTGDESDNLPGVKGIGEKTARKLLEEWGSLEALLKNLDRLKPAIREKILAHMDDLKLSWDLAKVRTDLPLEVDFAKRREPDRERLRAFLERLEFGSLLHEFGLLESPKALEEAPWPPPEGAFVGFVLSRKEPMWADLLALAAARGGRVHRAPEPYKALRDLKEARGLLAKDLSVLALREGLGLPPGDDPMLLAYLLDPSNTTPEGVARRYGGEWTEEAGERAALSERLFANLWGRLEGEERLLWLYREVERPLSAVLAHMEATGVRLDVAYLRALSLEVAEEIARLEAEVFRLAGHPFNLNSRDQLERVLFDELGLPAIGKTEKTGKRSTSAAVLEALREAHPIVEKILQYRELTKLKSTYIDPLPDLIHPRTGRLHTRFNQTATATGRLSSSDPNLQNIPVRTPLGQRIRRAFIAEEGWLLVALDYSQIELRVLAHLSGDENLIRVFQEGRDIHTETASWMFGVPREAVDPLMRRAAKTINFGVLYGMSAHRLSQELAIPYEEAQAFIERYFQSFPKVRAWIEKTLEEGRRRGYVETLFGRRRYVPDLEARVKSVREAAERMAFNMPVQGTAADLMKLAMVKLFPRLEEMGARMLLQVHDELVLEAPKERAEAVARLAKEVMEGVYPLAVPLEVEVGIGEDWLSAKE
pIC50: −log10 of the molar value.
MEASUREMENT_TYPE: pIC50

1) Nc1ncnc2c1ncn2[C@H]1CC[C@@H](COP(=O)(O)OP(=O)(O)OP(=O)(O)O)O1 [ddATP, 2′,3′-dideoxyadenosine triphosphate, reference compound] :: 4.90

====

molecular target: Bst DNA polymerase (Geobacillus stearothermophilus); assay: PEP termination assay; type: biochemical, Bacillus stearothermophilus
Sequence (P52026 289-876 limits assumed): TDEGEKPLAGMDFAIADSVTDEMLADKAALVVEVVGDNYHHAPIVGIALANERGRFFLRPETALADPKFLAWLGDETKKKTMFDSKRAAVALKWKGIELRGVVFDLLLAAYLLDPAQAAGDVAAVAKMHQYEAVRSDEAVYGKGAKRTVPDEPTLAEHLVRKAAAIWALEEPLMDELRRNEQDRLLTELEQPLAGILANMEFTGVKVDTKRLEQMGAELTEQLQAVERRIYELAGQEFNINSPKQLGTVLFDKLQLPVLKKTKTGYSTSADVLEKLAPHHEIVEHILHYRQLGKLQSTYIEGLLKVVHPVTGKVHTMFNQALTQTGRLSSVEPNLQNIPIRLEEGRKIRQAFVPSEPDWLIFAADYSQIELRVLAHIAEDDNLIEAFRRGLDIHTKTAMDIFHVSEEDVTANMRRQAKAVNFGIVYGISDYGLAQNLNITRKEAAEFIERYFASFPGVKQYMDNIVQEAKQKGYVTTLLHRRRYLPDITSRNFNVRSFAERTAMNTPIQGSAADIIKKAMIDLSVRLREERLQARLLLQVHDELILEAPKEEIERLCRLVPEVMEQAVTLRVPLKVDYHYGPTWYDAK
MEASUREMENT_TYPE: IC50 (nM)

1. O=[N+]([O-])c1ccccc1CNc1ncnc2c1ncn2[C@H]1C[C@H](O)[C@@H](COP(=O)(O)OP(=O)(O)OP(=O)(O)O)O1 [Compound IIIc] :: 10
